// data source = patent US12280088B2

experiment: Appearance of solutions in solubility study of variants; format: physicochemical; settings: pH 8.5, 10 mg/ml
Square brackets hold non-standard residues; d marks the D form. Peptide text beside a SMILES is read from it. Orn = NCCC[C@H](N)C(=O)O
recorded endpoint: Appearance of solutions

compound | value observed
CC(C)[C@H](NC(=O)[C@@H](NC(=O)[C@H](Cc1ccccc1)NC(=O)[C@@H](NC(=O)[C@@H](NC(=O)[C@H](Cc1ccccc1)NC(=O)[C@H](CO)NC(=O)[C@H](C)NC(=O)[C@H](CCCCN)NC(=O)CNC(=O)[C@H](CCC(=O)O)NC(=O)[C@@H](C)NC(=O)[C@@H](C)N)[C@@H](C)O)[C@@H](C)O)[C@@H](C)O)C(=O)N[C@H](C(=O)N[C@@H](CCCCN)C(=O)NCC(=O)N[C@@H](CO)C(=O)N[C@H](C)C(=O)N[C@H](C)C(N)=O)[C@@H](C)O [SEQ ID NO.7] (H-[dA][dA]EGKASFTTFTVTKGS[dA][dA]-NH2) | Clear
CC(C)[C@H](NC(=O)[C@@H](NC(=O)[C@H](Cc1ccccc1)NC(=O)[C@@H](NC(=O)[C@@H](NC(=O)[C@H](Cc1ccccc1)NC(=O)[C@H](CO)NC(=O)[C@H](C)NC(=O)[C@@H](N)CCCN)[C@@H](C)O)[C@@H](C)O)[C@@H](C)O)C(=O)N[C@H](C(=O)N[C@@H](CCCN)C(=O)N[C@@H](CO)C(N)=O)[C@@H](C)O [SEQ ID NO.10, OASFTTFTVTOS-NH2] (H-[Orn]ASFTTFTVT[Orn]S-NH2) | Clear
